Molecular target: Human renin (Homo sapiens)
Sequence (P00797 67-406): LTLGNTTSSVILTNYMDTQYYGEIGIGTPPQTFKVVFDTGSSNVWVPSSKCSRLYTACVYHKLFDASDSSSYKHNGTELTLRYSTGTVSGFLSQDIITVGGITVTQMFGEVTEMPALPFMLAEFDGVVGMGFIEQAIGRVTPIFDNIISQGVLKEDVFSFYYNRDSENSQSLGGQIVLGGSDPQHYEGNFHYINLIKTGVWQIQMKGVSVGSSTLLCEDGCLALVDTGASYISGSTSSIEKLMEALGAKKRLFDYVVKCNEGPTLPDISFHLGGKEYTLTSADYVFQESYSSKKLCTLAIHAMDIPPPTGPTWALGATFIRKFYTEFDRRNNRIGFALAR
Experiment: Human renin inhibition, angiotensin I quantified by EIA
Settings: read-out: Human renin inhibitory activity: inhibitory activity (%) at 0.1 μM
Property Label: inhibition at 0.1 µM (%)
The response must be a number in % with no trailing unit.

Field inhibition at 0.1 µM (entry COCCCCn1c(C(=O)N(CC(C)C)[C@@H]2CNC[C@H]([C@@H](C)O)C2)nc2ccccc21.Cl.Cl [Example 74-2, dihydrochloride] ) reads 96

Field inhibition at 0.1 µM (entry CC[C@H](O)[C@H]1CNC[C@@H](N(CC(C)C)C(=O)c2nc3ccccc3n2CCCCOC)C1.Cl.Cl [Example 75-1, dihydrochloride] ) reads 95

Field inhibition at 0.1 µM (entry COCCCCn1c(C(=O)N(CC(C)C)[C@@H]2CNC[C@H]([C@H](C)O)C2)nc2ccccc21.Cl.Cl [Example 74-1, dihydrochloride] ) reads 94

Field inhibition at 0.1 µM (entry CC[C@@H](O)[C@H]1CNC[C@@H](N(CC(C)C)C(=O)c2nc3ccccc3n2CCCCOC)C1.Cl.Cl [Example 75-2, dihydrochloride] ) reads 90

Where these numbers come from: patent US9221836B2
